Provide the reported inhibition of each item.
Experimental System: Glucose-6-phosphatase catalytic subunit 1 (Homo sapiens)
Sequence (whole entry): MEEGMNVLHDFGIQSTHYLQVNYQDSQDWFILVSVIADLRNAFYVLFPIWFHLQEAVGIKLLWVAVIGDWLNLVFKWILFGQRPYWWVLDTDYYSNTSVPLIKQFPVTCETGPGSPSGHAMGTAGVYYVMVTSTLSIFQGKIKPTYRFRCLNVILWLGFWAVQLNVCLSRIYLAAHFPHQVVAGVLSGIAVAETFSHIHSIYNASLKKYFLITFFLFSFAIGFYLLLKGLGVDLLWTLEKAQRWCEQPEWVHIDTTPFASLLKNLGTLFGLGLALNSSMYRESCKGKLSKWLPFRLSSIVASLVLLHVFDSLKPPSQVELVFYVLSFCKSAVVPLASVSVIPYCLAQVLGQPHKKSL
Test: Inhibition of glucose-6-phosphatase at 100 uM
Give a bare numeral; the unit % is implied.

Lookup: For CCC(=O)c1c(O)cccc1OCCN(C)C , write its inhibition.
Found: 11.3

Lookup: For CCC(=O)c1c(O)cccc1OCCN1CCCCC1 , write its inhibition.
Found: 21.3

Lookup: For CCCCNCCCOc1cccc(O)c1C(=O)CC , write its inhibition.
Found: 18.3

Lookup: For CCCCN(C)CCCOc1cccc(O)c1C(=O)CC , write its inhibition.
Found: 17.3

Lookup: For CCC(=O)c1c(O)cccc1OCCCN1CCCC1 , write its inhibition.
Found: 13.6

Lookup: For CCC(=O)c1c(O)cccc1OCCCNc1ccc(C)cc1 , write its inhibition.
Found: 18.9

Lookup: For CCOC(=O)C(CCCOc1cccc(OCCN2CCCC2)c1C(=O)CC)C(=O)OCC , write its inhibition.
Found: 13.9

* * *

Provide the reported inhibition of each item.
Test: Inhibition of glycogen phosphorylase at 100 uM

Lookup: For CCOC(=O)C(CCCOc1cccc(OCCN2CCCCC2)c1C(=O)CC)C(=O)OCC , write its inhibition.
Found: < 5%

Lookup: For CCC(=O)c1c(O)cccc1OCCCNc1ccc(C)cc1 , write its inhibition.
Found: < 5%

Lookup: For CCC(=O)c1c(O)cccc1OCCCN1CCCC1 , write its inhibition.
Found: 19.5%

Lookup: For CCC(=O)c1c(O)cccc1OCCN1CCCCC1 , write its inhibition.
Found: < 5%

Lookup: For CCOC(=O)C(CCCOc1cccc(OCCN(CC)CC)c1C(=O)CC)C(=O)OCC , write its inhibition.
Found: 22.9%

Lookup: For CCC(=O)c1c(O)cccc1OCCN(CC)CC , write its inhibition.
Found: < 5%

Lookup: For CCC(=O)c1c(O)cccc1OCCN(C)C , write its inhibition.
Found: < 5%

Lookup: For CCC(=O)c1c(O)cccc1OCCN1CCCC1 , write its inhibition.
Found: 13.7%

Lookup: For CCC(=O)c1c(O)cccc1OCCCN1CCCCC1 , write its inhibition.
Found: < 5%

Lookup: For CCOC(=O)C(CCCOc1cccc(OCCCNc2ccc(C)cc2)c1C(=O)CC)C(=O)OCC , write its inhibition.
Found: < 5%

Lookup: For CCCCN(C)CCCOc1cccc(O)c1C(=O)CC , write its inhibition.
Found: < 5%

Lookup: For CCOC(=O)C(CCCOc1cccc(OCCN(C)C)c1C(=O)CC)C(=O)OCC , write its inhibition.
Found: < 5%

Lookup: For CCOC(=O)C(CCCOc1cccc(OCCN2CCCC2)c1C(=O)CC)C(=O)OCC , write its inhibition.
Found: < 5%

Lookup: For CCCCNCCCOc1cccc(O)c1C(=O)CC , write its inhibition.
Found: 24.8%

Lookup: For CCC(=O)c1c(O)cccc1OCCCNc1ccc(OC)cc1 , write its inhibition.
Found: 23%
